testedOn: CB1 receptor (Homo sapiens)
measurementNotes: DiscoveRx HitHunter cAMP XS+ assay in cAMP Hunter cell line, allosteric modulation of CP55,940 response
Format: cell-based
assaySetup: Table 2, covalent allosteric modulators; read-out: cAMP activity ECMax (%)
Emax listing for selected compounds.
quantityMeasured: Emax

>  <structureAsSmiles>
CCc1c(C(=O)NCCc2ccc(N3CCCCC3)cc2)[nH]c2ccc(N=[N+]=[N-])cc12

>  <result>
89%

$$$$
>  <structureAsSmiles>
[N-]=[N+]=Nc1ccc(NC(=O)Nc2cccc(-c3cccc(N4CCCC4)n3)c2)cc1

>  <result>
128%

$$$$
>  <structureAsSmiles>
O=C(Nc1ccc(I)cc1)Nc1cccc(-c2cccc(N3CCCC3)n2)c1

>  <result>
102%

$$$$
>  <structureAsSmiles>
O=C(Nc1ccc(C(=O)c2ccccc2)cc1)Nc1cccc(-c2cccc(N3CCCC3)n2)c1

>  <result>
99.6%

$$$$

###

testedOn: CB1 receptor (Homo sapiens)
measurementNotes: β-arrestin recruitment in CNR1 PathHunter cell line, allosteric modulation of CP55,940 response
Format: cell-based
assaySetup: Table 1; CP55,940 as agonist

>  <compound>
O=C(Nc1cccc(-c2cccc(N3CCCC3)n2)c1)NC1CCCCC1 [Compound 10z]

>  <β-arrestin % inhibition, %>
136

$$$$
>  <compound>
O=C(Nc1cccc(-c2cccc(N3CCCC3)n2)c1)Nc1ccc(Cl)c(CCCCO)c1 [Compound 24b]

>  <β-arrestin % inhibition, %>
125

$$$$
>  <compound>
O=C(Nc1ccc(Cl)cc1)Oc1cccc(-c2cccc(N3CCCC3)n2)c1

>  <β-arrestin % inhibition, %>
58

$$$$
>  <compound>
O=C(Nc1cccc(-c2cccc(N3CCCC3)n2)c1)Nc1ccc(Cl)cc1C#CCCO [Compound 22a]

>  <β-arrestin % inhibition, %>
83

$$$$
>  <compound>
O=C(Nc1cccc(-c2cccc(N3CCCC3)n2)c1)Nc1ccccc1C(F)(F)F [Compound 10g]

>  <β-arrestin % inhibition, %>
123

$$$$
>  <compound>
O=C(Nc1ccc(Cl)cc1)Nc1cccc(-c2cccc(N3CCCC3)c2)c1

>  <β-arrestin % inhibition, %>
110

$$$$
>  <compound>
O=C(Nc1cccc(-c2cccc(N3CCCC3)n2)c1)Nc1cccc(C(F)(F)F)c1 [Compound 10f]

>  <β-arrestin % inhibition, %>
129

$$$$
>  <compound>
O=C(Nc1ccc(I)cc1)Nc1cccc(-c2cccc(N3CCCC3)n2)c1 [Compound 10b]

>  <β-arrestin % inhibition, %>
133

$$$$
>  <compound>
O=c1c(Nc2ccc(Cl)cc2)c(Nc2cccc(-c3cccc(N4CCCC4)n3)c2)c1=O

>  <β-arrestin % inhibition, %>
107

$$$$
>  <compound>
O=C(Nc1cccc(-c2cccc(N3CCCC3)n2)c1)Nc1ccccc1CCCCOC1CCCCO1 (stereo not drawn) [Compound 23c]

>  <β-arrestin % inhibition, %>
69

$$$$
>  <compound>
O=C(Nc1cccc(-c2cccc(N3CCCC3)n2)c1)Nc1ccccc1CO

>  <β-arrestin % inhibition, %>
106

$$$$
>  <compound>
Cc1cc(Cl)ccc1NC(=O)Nc1cccc(-c2cccc(N3CCCC3)n2)c1 [Compound 10s]

>  <β-arrestin % inhibition, %>
109

$$$$
>  <compound>
COc1cccc(NC(=O)Nc2cccc(-c3cccc(N4CCCC4)n3)c2)c1 [Compound 10i]

>  <β-arrestin % inhibition, %>
109

$$$$
>  <compound>
CCc1ccccc1NC(=O)Nc1cccc(-c2cccc(N3CCCC3)n2)c1 [Compound 10r]

>  <β-arrestin % inhibition, %>
76

$$$$
>  <compound>
COc1ccc(NC(=O)Nc2cccc(-c3cccc(N4CCCC4)n3)c2)cc1 [Compound 10h]

>  <β-arrestin % inhibition, %>
98

$$$$
>  <compound>
CN(C(=O)Nc1cccc(-c2cccc(N3CCCC3)n2)c1)c1ccc(Cl)cc1 [Compound 13a]

>  <β-arrestin % inhibition, %>
99

$$$$
>  <compound>
CN(C(=O)N(C)c1cccc(-c2cccc(N3CCCC3)n2)c1)c1ccc(Cl)cc1

>  <β-arrestin % inhibition, %>
62

$$$$
>  <compound>
CN(C(=O)Nc1ccc(Cl)cc1)c1cccc(-c2cccc(N3CCCC3)n2)c1

>  <β-arrestin % inhibition, %>
109

$$$$
>  <compound>
O=C(Nc1ccc(Cl)cc1)Nc1cccc(-c2ccnc(N3CCCC3)c2)c1

>  <β-arrestin % inhibition, %>
111

$$$$
>  <compound>
O=C(Nc1cccc(-c2cccc(N3CCCC3)n2)c1)Oc1ccc(Cl)cc1 [Compound 13b]

>  <β-arrestin % inhibition, %>
24

$$$$
>  <compound>
O=C(Nc1cccc(Oc2ccccc2)c1)Nc1cccc(-c2cccc(N3CCCC3)n2)c1 [Compound 10l]

>  <β-arrestin % inhibition, %>
117

$$$$

###

testedOn: CB1 receptor (Homo sapiens, UniProt P21554)
Sequence (P21554 whole entry): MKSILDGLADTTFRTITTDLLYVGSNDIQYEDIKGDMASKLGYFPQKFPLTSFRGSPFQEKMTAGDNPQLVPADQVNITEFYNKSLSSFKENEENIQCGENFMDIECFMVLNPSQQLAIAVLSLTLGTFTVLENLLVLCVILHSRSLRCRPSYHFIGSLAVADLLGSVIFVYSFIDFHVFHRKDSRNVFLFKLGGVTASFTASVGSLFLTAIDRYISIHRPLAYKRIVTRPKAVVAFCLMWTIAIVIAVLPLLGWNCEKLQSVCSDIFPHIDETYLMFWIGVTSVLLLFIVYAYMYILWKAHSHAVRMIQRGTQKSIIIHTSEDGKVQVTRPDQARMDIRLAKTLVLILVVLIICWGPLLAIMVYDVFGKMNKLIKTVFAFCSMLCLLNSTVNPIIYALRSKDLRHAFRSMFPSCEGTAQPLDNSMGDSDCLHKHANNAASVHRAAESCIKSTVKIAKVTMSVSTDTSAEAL
measurementNotes: DiscoveRx HitHunter cAMP XS+ assay in cAMP Hunter cell line, allosteric modulation of CP55,940 response
Assay type: cell-based
assaySetup: Table 1; preincubation with compound, then CP55,940 challenge; 20 μM forskolin

>  <compound>
Cc1cccc(NC(=O)Nc2cccc(-c3cccc(N4CCCC4)n3)c2)c1 [Compound 10o]

>  <unitsLabel>
%

>  <cAMP % inhibition>
65

$$$$
>  <compound>
O=c1c(Nc2ccc(Cl)cc2)c(Nc2cccc(-c3cccc(N4CCCC4)n3)c2)c1=O

>  <unitsLabel>
%

>  <cAMP % inhibition>
16

$$$$
>  <compound>
S=C(Nc1ccc(Cl)cc1)Nc1cccc(-c2cccc(N3CCCC3)n2)c1

>  <unitsLabel>
%

>  <cAMP % inhibition>
77

$$$$
>  <compound>
O=C(Nc1ccc(Cl)cc1)Nc1cccc(-c2ccnc(N3CCCC3)c2)c1

>  <unitsLabel>
%

>  <cAMP % inhibition>
50

$$$$
>  <compound>
COC(=O)c1ccccc1NC(=O)Nc1cccc(-c2cccc(N3CCCC3)n2)c1

>  <unitsLabel>
%

>  <cAMP % inhibition>
0.6

$$$$
>  <compound>
Clc1ccc(-c2nnc(Nc3cccc(-c4cccc(N5CCCC5)n4)c3)o2)cc1

>  <unitsLabel>
%

>  <cAMP % inhibition>
20

$$$$
>  <compound>
O=C(Nc1cccc(-c2cccc(N3CCCC3)n2)c1)Nc1ccccc1Oc1ccccc1 [Compound 10m]

>  <unitsLabel>
%

>  <cAMP % inhibition>
18

$$$$
>  <compound>
O=C(Nc1cccc(-c2cccc(N3CCCC3)n2)c1)Nc1ccccc1F [Compound 10u]

>  <unitsLabel>
%

>  <cAMP % inhibition>
79

$$$$
>  <compound>
O=C(Nc1ccc(Cl)cc1)Oc1cccc(-c2cccc(N3CCCC3)n2)c1

>  <unitsLabel>
%

>  <cAMP % inhibition>
8.8

$$$$

###

testedOn: CB1 receptor (Homo sapiens, UniProt P21554)
measurementNotes: DiscoveRx HitHunter cAMP XS+ assay in cAMP Hunter cell line, allosteric modulation of CP55,940 response
Format: cell-based
assaySetup: Table 1; preincubation with compound, then CP55,940 challenge; 20 μM forskolin
cAMP % inhibition listing for selected molecules.

>  <molecule>
O=C(Nc1cccc(Cl)c1)Nc1cccc(-c2cccc(N3CCCC3)n2)c1 [Compound 10c]

>  <cAMP % inhibition / %>
111

$$$$
>  <molecule>
O=C(Nc1cccc(-c2cccc(N3CCCC3)n2)c1)Nc1ccc(Cl)c(C#CCCO)c1 [Compound 22b]

>  <cAMP % inhibition / %>
152

$$$$
>  <molecule>
O=C(Nc1cccc(-c2cccc(N3CCCC3)n2)c1)Nc1ccccc1CCCCOC1CCCCO1 (centres unmarked) [Compound 23c]

>  <cAMP % inhibition / %>
20

$$$$
>  <molecule>
O=C(Nc1cccc(-c2cccc(N3CCCC3)n2)c1)Nc1ccc(Cl)c(I)c1 [Compound 19b]

>  <cAMP % inhibition / %>
30

$$$$
>  <molecule>
O=C(Nc1cccc(-c2cccc(N3CCCC3)n2)c1)N1CCc2ccccc2C1 [Compound 10y]

>  <cAMP % inhibition / %>
2.55

$$$$
>  <molecule>
O=C(Nc1cccc(-c2cccc(N3CCCC3)n2)c1)Nc1cccc2ccccc12 [Compound 10w]

>  <cAMP % inhibition / %>
69

$$$$
>  <molecule>
O=C(Nc1ccc(Cl)cc1)Nc1cccc(-c2ccc(N3CCCC3)nc2)c1

>  <cAMP % inhibition / %>
6

$$$$
>  <molecule>
O=C(Nc1ccc(Cl)cc1)Nc1ccc(-c2cccc(N3CCCC3)n2)cc1

>  <cAMP % inhibition / %>
11

$$$$
>  <molecule>
O=C(Nc1cccc(-c2cccc(N3CCCC3)n2)c1)Nc1ccc(Cl)c(C#CCCOC2CCCCO2)c1 (centres unmarked) [Compound 21b]

>  <cAMP % inhibition / %>
22

$$$$
>  <molecule>
O=C(Nc1cccc(-c2cccc(N3CCCC3)n2)c1)Nc1cccc(C(F)(F)F)c1 [Compound 10f]

>  <cAMP % inhibition / %>
116

$$$$
>  <molecule>
O=C(Nc1cccc(-c2cccc(N3CCCC3)n2)c1)Nc1ccccc1Cl [Compound 10d]

>  <cAMP % inhibition / %>
39

$$$$
>  <molecule>
Cc1ccccc1NC(=O)Nc1cccc(-c2cccc(N3CCCC3)n2)c1 [Compound 10p]

>  <cAMP % inhibition / %>
97

$$$$
>  <molecule>
CCc1ccccc1NC(=O)Nc1cccc(-c2cccc(N3CCCC3)n2)c1 [Compound 10r]

>  <cAMP % inhibition / %>
42

$$$$
>  <molecule>
O=C(Nc1cccc(-c2cccc(N3CCCC3)n2)c1)Nc1ccc(Cl)c(CCCCOC2CCCCO2)c1 (centres unmarked) [Compound 23b]

>  <cAMP % inhibition / %>
55

$$$$
>  <molecule>
COc1ccc(NC(=O)Nc2cccc(-c3cccc(N4CCCC4)n3)c2)cc1 [Compound 10h]

>  <cAMP % inhibition / %>
97

$$$$
>  <molecule>
O=C(Nc1cccc(-c2cccc(N3CCCC3)n2)c1)Nc1ccccc1C(=O)O

>  <cAMP % inhibition / %>
35

$$$$
>  <molecule>
O=C(Nc1cccc(-c2cccc(N3CCCC3)n2)c1)Nc1ccc(Cl)cc1CCCCOC1CCCCO1 (centres unmarked) [Compound 23a]

>  <cAMP % inhibition / %>
41

$$$$
